The reported numbers originate from patent US11685744B2.

In this section we review reported IC50 values for a set of compounds.
- Tgt: CDK4/Cyclin D1 (Homo sapiens (Human))
- Experimental protocol: CDK4/CyclinD1 enzymatic activity assay (TR-FRET)
- Setup conditions: ATP 2 mM, read-out: CDK4_D1 IC50

Answered cases to consult:
| Compound | IC50 |
| --- | --- |
| CCN1CCC(c2ccc(Nc3ncc(F)c(-c4sc5c(C6CCCC6)ccnc5c4Cl)n3)nc2)CC1 | ≤ 20 nM |
| CCN1CCN(Cc2ccc(Nc3ncc(F)c(-c4sc5c(nc(C)n5C5CCC5)c4C)n3)nc2)CC1 | ≤ 20 nM |
| CCN1CCN(C(=O)c2ccc(Nc3ncc(F)c(-c4cc5nc(C)n(C(C)C)c5s4)n3)nc2)CC1 | ≤ 20 nM |
| Cc1c(-c2nc(Nc3ccc(C4CCCN(C)C4)cn3)ncc2F)sc2c1ncn2C(C)C (single isomer, unassigned) [Example 126] | ≤ 20 nM |
| [2H]C([2H])([2H])n1cc(C(C)C)c2sc(-c3nc(Nc4ccc(C5CCN(C)CC5)cn4)ncc3F)c(C)c2c1=O | ≤ 20 nM |
| CCN1CCN(c2ccc(Nc3ncc(F)c(-c4sc5c(C6CCCC6)ccnc5c4Cl)n3)nc2)CC1 | ≤ 20 nM |

Switching to the query record.
Incoming: Complete the entry with IC50 for Cc1nc2cc(-c3nc(Nc4ccc(CN5CCC(C(=O)N(C)C)C5)cn4)ncc3F)sc2n1C(C)C (stereo not drawn)
Outgoing: 20 to 200 nM

###

Catalogue of molecules with associated Kp at 4 h
- Experimental protocol: Brain-to-plasma ratio (Kp) determination in Sprague-Dawley rats
- Setup conditions: male, rat, brain / plasma, po, 10 mg/kg

Use these answered entries as a reference point.
| Molecule | Assay result |
| --- | --- |
| Cc1c(-c2nc(Nc3ccc(N4CCN(C)CC4)cn3)ncc2F)sc2c(C(C)C)cn(C)c(=O)c12 | > 3 |
| CCN1CC2(C1)CN(c1ccc(Nc3ncc(F)c(-c4cc5nccc(C(C)(C)O)c5s4)n3)nc1)C2 | < 1 |

Continue with the molecule presented below.
Incoming: Hello, please tell me recorded Kp at 4 h for this one: Cc1nc2cc(-c3nc(Nc4ccc(OC5CCN(C)C5)cn4)ncc3F)sc2n1C(C)C (stereo not drawn)
Outgoing: 1 to 3

###

- Tgt: CDK4/Cyclin D1 (Homo sapiens (Human), UniProt P11802)
- Sequence (P11802 whole entry, one chain of several): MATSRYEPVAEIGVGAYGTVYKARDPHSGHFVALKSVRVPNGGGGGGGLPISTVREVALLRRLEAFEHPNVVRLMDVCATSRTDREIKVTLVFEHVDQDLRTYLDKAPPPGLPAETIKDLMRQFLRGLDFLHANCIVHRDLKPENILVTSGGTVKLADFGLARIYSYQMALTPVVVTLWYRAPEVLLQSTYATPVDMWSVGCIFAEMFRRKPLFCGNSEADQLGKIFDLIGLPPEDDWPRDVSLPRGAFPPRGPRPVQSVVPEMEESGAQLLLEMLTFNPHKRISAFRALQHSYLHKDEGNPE
- Experimental protocol: CDK4/CyclinD1 enzymatic activity assay (TR-FRET)
- Setup conditions: ATP 2 mM, read-out: CDK4_D1 IC50
pIC50: −log10 of the molar value.
Assay metric: pIC50

Some entries whose results are on file:
| Entry smiles | pIC50 |
| --- | --- |
| Cc1c(-c2nc(Nc3ccc(N4CC5(CNC5)C4)cn3)ncc2F)sc2c(C3CCCC3)ccnc12 | ≥ 7.70 |
| CCN1CCN(c2ccc(Nc3ncc(F)c(-c4sc5c(C(C)C)nn(C)c5c4C)n3)nc2)CC1 | 5.70 to 6.70 |
| CCN1CC2(C1)CN(c1ccc(Nc3ncc(F)c(-c4cc5nccc(C(C)C)c5s4)n3)nc1)C2 | ≥ 7.70 |

Incoming: Report measured pIC50; entry is CCN1CCN(c2ccc(Nc3ncc(F)c(-c4sc5c(nc(C)n5C5CCC5)c4C)n3)nc2)CC1
Outgoing: ≥ 7.70

###

- Tgt: CDK4/Cyclin D1 (Homo sapiens (Human), UniProt P11802)
- Experimental protocol: CDK4/CyclinD1 enzymatic activity assay (TR-FRET)
- Setup conditions: ATP 2 mM, read-out: CDK4_D1 IC50
pIC50: −log10 of the molar value.
Listed here: items and their measured pIC50.

Below, 8 compounds whose answers are already recorded.
| Compound | pIC50 |
| --- | --- |
| Cc1c(-c2nc(Nc3ccc(C4CCN(C)CC4)cn3)ncc2F)sc2c(C3CCCC3)ncnc12 | 5.70 to 6.70 |
| CCN1C2CC1CN(c1ccc(Nc3ncc(F)c(-c4cc5c(=O)n(C)cc(C(C)C)c5s4)n3)nc1)C2 | ≥ 7.70 |
| Fc1cnc(Nc2ccc(N3CCOCC3)cn2)nc1-c1cc2c(C3CCCC3)ccnc2s1 | 5.70 to 6.70 |
| Cc1c(-c2nc(Nc3ccc(N4C[C@H]5CN(C)C[C@H]5C4)cn3)ncc2F)sc2c(C(C)C)cn(C)c(=O)c12 | ≥ 7.70 |
| CCN1CCN(Cc2ccc(Nc3ncc(F)c(-c4cc5nccc(C6CCCC6)c5s4)n3)nc2)CC1 | ≥ 7.70 |
| Cc1c(-c2nc(Nc3ccc(N4CCC5(CC4)CN(C)C5)cn3)ncc2F)sc2c(C(C)C)cn(C)c(=O)c12 | ≥ 7.70 |
| CCN1CC2(C1)CN(c1ccc(Nc3ncc(F)c(-c4cc5c(=O)n(C)nc(C6CN(C(=O)OC(C)(C)C)C6)c5s4)n3)nc1)C2 | ≥ 7.70 |
| COC1CCN(c2ccc(Nc3ncc(F)c(-c4cc5nccc(C6CCCC6)c5s4)n3)nc2)CC1 | 6.70 to 7.70 |

Incoming: Give reported pIC50 value for Cc1nc2cc(-c3nc(Nc4ccc(C5CCN(C)CC5)cn4)ncc3C(F)(F)F)sc2n1C(C)C
Outgoing: ≥ 7.70

Incoming: Kindly indicate its recorded pIC50. Item: CCN1CCN(C(=O)c2ccc(Nc3ncc(F)c(-c4cc5c(=O)n(C)cc(C(C)C)c5s4)n3)nc2)CC1
Outgoing: ≥ 7.70

###

- Tgt: CDK6/Cyclin D1 (Homo sapiens (Human))
- Sequence (Q00534 whole entry): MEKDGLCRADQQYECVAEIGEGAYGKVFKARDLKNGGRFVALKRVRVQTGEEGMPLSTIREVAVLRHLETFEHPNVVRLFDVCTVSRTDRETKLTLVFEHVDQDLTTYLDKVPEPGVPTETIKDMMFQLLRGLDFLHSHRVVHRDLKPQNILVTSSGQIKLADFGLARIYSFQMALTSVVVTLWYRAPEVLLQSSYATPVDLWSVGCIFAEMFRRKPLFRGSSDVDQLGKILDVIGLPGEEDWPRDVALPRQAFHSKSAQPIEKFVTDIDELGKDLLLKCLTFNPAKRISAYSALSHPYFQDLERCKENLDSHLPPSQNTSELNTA
- Sequence (P24385 whole entry partner): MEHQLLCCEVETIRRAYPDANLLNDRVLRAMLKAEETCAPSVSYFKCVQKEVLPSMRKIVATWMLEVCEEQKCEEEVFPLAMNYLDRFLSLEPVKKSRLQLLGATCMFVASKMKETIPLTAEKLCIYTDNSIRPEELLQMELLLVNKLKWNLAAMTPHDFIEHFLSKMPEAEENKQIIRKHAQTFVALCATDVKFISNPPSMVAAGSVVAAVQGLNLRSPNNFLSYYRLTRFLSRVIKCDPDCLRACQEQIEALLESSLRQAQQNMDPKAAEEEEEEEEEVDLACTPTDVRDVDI
- Experimental protocol: CDK6/CyclinD1 enzymatic activity assay (TR-FRET)
- Setup conditions: ATP 250 μM, read-out: CDK6_D1 IC50
Below is a list of entries, each paired with its recorded IC50 value.

| Compound | Assay metric | Assay result |
| --- | --- | --- |
| Cc1nc2cc(-c3nc(Nc4ccc(OC5CCN(C)C5)cn4)ncc3F)sc2n1C(C)C (stereo not shown) | IC50 | 20 to 200 nM |
| CCN1CCN(c2ccc(Nc3ncc(F)c(-c4sc5c(nc(C)n5C5CCCC5)c4C)n3)nc2)CC1 | IC50 | 20 to 200 nM |

Incoming: Find the measured IC50 of Cc1c(-c2nc(Nc3ccc(N4CCN(CC(F)(F)F)CC4)cn3)ncc2F)sc2c(C(C)C)cn(C)c(=O)c12 and report it.
Outgoing: 20 to 200 nM

Incoming: # return recorded IC50 for input CCN1CCN(Cc2ccc(Nc3ncc(F)c(-c4sc5c(C(C)C)cn(C)c(=O)c5c4C)n3)nc2)CC1
Outgoing: 20 to 200 nM

Incoming: Provide one value: measured IC50 of Cc1c(-c2nc(Nc3ccc(N4CCC(N(C)C)C4)cn3)ncc2F)sc2c1nc(C)n2C(C)C (stereo not shown)
Outgoing: 20 to 200 nM

Incoming: State its IC50: CCN1CC2(C1)CN(c1ccc(Nc3ncc(F)c(-c4sc5c(C(C)C)n(C)nc5c4C)n3)nc1)C2
Outgoing: ≤ 20 nM

Incoming: Give reported IC50 value for Cc1c(-c2nc(Nc3ccc(N4C[C@H]5CN(C)C[C@H]5C4)cn3)ncc2F)sc2c(C(C)C)cn(C)c(=O)c12
Outgoing: ≤ 20 nM

###

- Tgt: CDK4/Cyclin D1 (Homo sapiens (Human), UniProt P11802)
- Experimental protocol: CDK4/CyclinD1 enzymatic activity assay (TR-FRET)
- Setup conditions: ATP 2 mM, read-out: CDK4_D1 IC50
Quick reference for IC50 among some compounds

Incoming: State recorded IC50 with CDK4/Cyclin D1 (Homo sapiens (Human), UniProt P11802), entry CCN1CCN(c2ccc(Nc3ncc(F)c(-c4cc5c(C6CCCC6)ccnc5s4)n3)nc2)CC1 [Example 44] , no comment.
Outgoing: 20 to 200 nM

Incoming: Print CDK4/Cyclin D1 (Homo sapiens (Human), UniProt P11802) IC50 for CCN1CC2(C1)CN(c1ccc(Nc3ncc(F)c(-c4sc5c(c4C)c(=O)ncn5C(C)C)n3)nc1)C2 [Example 62] .
Outgoing: ≤ 20 nM

Incoming: Provide the reported IC50 (system: CDK4/Cyclin D1 (Homo sapiens (Human), UniProt P11802)) for [2H]C([2H])([2H])N1CCC(c2ccc(Nc3ncc(F)c(-c4sc5c(C(C)C)cn(C)c(=O)c5c4C)n3)nc2)CC1 [Example 82]
Outgoing: ≤ 20 nM

Incoming: State IC50 (CDK4/Cyclin D1 (Homo sapiens (Human), UniProt P11802)) of CCN1CC2(CC(c3ccc(Nc4ncc(F)c(-c5cc6nc(C)n(C(C)C)c6s5)n4)nc3)C2)C1 [Example 112] .
Outgoing: ≤ 20 nM

###

- Tgt: CDK6/Cyclin D1 (Homo sapiens (Human))
- Experimental protocol: CDK6/CyclinD1 enzymatic activity assay (TR-FRET)
- Setup conditions: ATP 250 μM, read-out: CDK6_D1 IC50
pIC50: −log10 of the molar value.
Assay metric: pIC50

| Compound | Tgt | Assay result |
| --- | --- | --- |
| CCN1CCN(c2ccc(Nc3ncc(F)c(-c4sc5c(C(C)C)ccnc5c4C(F)(F)F)n3)nc2)CC1 [Example 121] | CDK6/Cyclin D1 (Homo sapiens (Human)) | 6.70 to 7.70 |

Incoming: Consider the compound Cc1nc2cc(-c3nc(Nc4ccc(C5CCN(C)CC5)cn4)ncc3C(F)(F)F)sc2n1C(C)C [Example 120] and give its recorded pIC50.
Outgoing: ≥ 7.70

Incoming: For the compound Cc1c(-c2nc(Nc3ccc(C4CCCN(C)C4)cn3)ncc2F)sc2c(C(C)C)cn(C)c(=O)c12 (stereo not shown) [Example 88] , report pIC50.
Outgoing: 6.70 to 7.70

Incoming: Let me know recorded pIC50 for Cc1c(-c2nc(Nc3ccc(N4CCN(C)CC4)cn3)ncc2F)sc2c1nc(C)n2C(C)C [Example 9] , thanks.
Outgoing: ≥ 7.70

Incoming: Given the compound Cc1c(-c2nc(Nc3ccc(C4CCNCC4)cn3)ncc2F)sc2c(C(C)C)cn(C)c(=O)c12 [Example 94] , write its reported pIC50.
Outgoing: ≥ 7.70
